- System: DU-145 prostate
- assay.info: NCI tumour cell line growth inhibition, 48 h
Measured TGI accompanies every entry in the list below.

Solved entries:
compound.string	TGI
Cc1cc2c(SCc3ccccc3Cl)nc(N)nc2nc1C	> 100 µM
CS(=O)(=O)Nc1ccc(Nc2c3ccccc3nc3cc(Cl)ccc23)cc1	14 µM

Attention now turns to another entry.
Prompt: // Input: "CC(C)=C[C@@H]1C[C@H](C)[C@H]2CC[C@H](C)[C@H]3C(=O)C(O)=C(C)C(=O)[C@]123" . Output its TGI only.
Response: > 100 µM

---

Measured TGI accompanies every entry in the list below.
- Test system: CCRF-CEM leukemia
- assay.info: NCI tumour cell line growth inhibition, 48 h

compound.string	TGI
CCCCCCCCCCCCCCCC(=O)NCC(OCC)OCC	> 100 µM
COC(=O)CCSC(=O)Nc1ccccc1Cl	> 100 µM
CCOC(=O)NC/C=C/CO	> 100 µM
Cc1c(N(Cc2ccccc2)Cc2ccccc2)nc(S(C)(=O)=O)nc1S(C)(=O)=O	5.15 µM
O=NNc1nc(-c2ccccn2)nc2ccccc12	15.4 µM

Prompt: // Input: "CCOC(=O)C1=C(O)c2c(OC)ccc(OC)c2C(=O)C1=O" . Output its TGI only.
Response: > 100 µM

Prompt: // Input: "COc1ccc(Sc2ccccc2[N+](=O)[O-])cc1" . Output its TGI only.
Response: > 100 µM

---

- System: SK-MEL-2 melanoma
- assay.info: NCI tumour cell line growth inhibition, 48 h
Values of TGI greater than or equal to 20 µM map to y; values below map to n.

compound.string	study.target	classification
CN1CCN(Cc2ccc(NC(=O)c3cncc(C#Cc4cnc5cccnn45)c3)cc2C(F)(F)F)CC1	SK-MEL-2 melanoma	n
CCOC(=O)Oc1ccc2[nH]c3c(C)cc(N)c(C)c3c2c1	SK-MEL-2 melanoma	y
COc1ccc(N=C(SSC(=Nc2ccc(OC)cc2)c2ccc([N+](=O)[O-])o2)c2ccc([N+](=O)[O-])o2)cc1	SK-MEL-2 melanoma	n
O=C1Cc2c(-c3ccccc3)cc(-c3ccc(Cl)cc3)nc2-c2ccccc2N1	SK-MEL-2 melanoma	y
Cc1c(N(Cc2ccccc2)Cc2ccccc2)nc(S(C)(=O)=O)nc1S(C)(=O)=O	SK-MEL-2 melanoma	y

Prompt: Determine whether this molecule has TGI no lower than 20 µM: "O=C1NC2(CCCCC2)C2=C1CCCCC2"
Response: y

Prompt: Determine whether this molecule has TGI no lower than 20 µM: "CCOC(=O)c1ccc(-c2cccs2)[nH]1"
Response: y

Prompt: Determine whether this molecule has TGI no lower than 20 µM: "CCOC(=O)c1sc2nc(SC)nc3c2c1NCN3c1ccccc1Cl"
Response: y

---

- Test system: SK-MEL-5 melanoma
- assay.info: NCI tumour cell line growth inhibition, 48 h
Measured TGI accompanies every entry in the list below.
The figure you give is taken to be in µM; do not add the unit.

Solved entries:
molecule	unit	quantitative.result
COc1cc(O)c2c(=O)c(O)c(-c3ccc(O)c(O)c3)oc2c1	µM	58.6
Nc1ccc2ncc(Nc3ccc(Cl)c(Cl)c3)nc2c1	µM	36.1
CCOC(=O)c1c(SCCN(CC)CC)n(-c2ccccc2)c(=S)n(-c2ccccc2)c1=O	µM	7.6
O=C(/C=C/N1CCN(c2cccc(Cl)c2)CC1)c1ccc(Cl)cc1	µM	31.5
CCN(CCCl)c1ccc(NC(=O)c2cc(C(=O)NCCN(C)C)cc(C(=O)Nc3ccc(N(CC)CCCl)cc3)c2)cc1	µM	30.7

Prompt: // Input: CCOC(=O)C(NC(=O)c1cccc(Cl)c1)(N1CCN(c2cc3c(cc2F)c(=O)c(C(=O)O)cn3CC)CC1)C(F)(F)F (stereo unspecified) . Output its TGI only.
Response: 27.2

Prompt: // Input: Cc1ccc(C(=O)C2CC3(CCC2(O)c2ccc(C)cc2)CC(=O)Nc2ccccc2C3=O)cc1 (stereo unspecified) . Output its TGI only.
Response: 97.6

Prompt: // Input: "N#Cc1c(N/N=C/c2c(Cl)cccc2Cl)nc(N)nc1N1CCCC1" . Output its TGI only.
Response: 7.11

Prompt: // Input: "CCN(CC)CCCNc1nnc(C)c2[nH]c3ccccc3c12" . Output its TGI only.
Response: 27.8

Prompt: // Input: "COc1ccc2c(CCCCC(c3ccccc3)c3ccccc3)c3[n+](cc2c1OC)CCc1cc2c(cc1-3)OCO2" . Output its TGI only.
Response: 0.177

Prompt: // Input: "CCOC(=O)c1c(/C=N\Nc2ccccc2)nc2ccccc2c1-c1ccccc1" . Output its TGI only.
Response: 85.6
